Where do these numbers come from? They come from patent US6914045B2.

Below, each of the compounds is paired with its reported MIC Enterococcus faecalis (ATCC 29212) value.
# System: Enterococcus sp.
# test: in vitro antibacterial evaluation, MIC by broth dilution
# Format: cell-based
# test context: broth dilution, 18 hours at 35° C.; strain ATCC 29212
Express it in µg/mL; write the number only.

- compound: "COC1CCC2(C)C(CCC3C2CCC2(C)C(C(C)CCC4OCC5OC(OC6C(CO)OC(Oc7ccc(CC8NC(=O)C(C(C)c9ccccc9)NC(=O)CNC(=O)C(CO)NC(=O)C(C(O)C9CNC(=N)N9C9OC(CO)C(O)C(O)C9O)NC(=O)C(C(O)C9CNC(=N)N9)NC8=O)cc7)C(O)C6O)C(O)C(O)C5O4)CCC32)C1 (stereo not shown) [Example 130]"
  system: "Enterococcus sp."
  value unit: "µg/mL"
  MIC Enterococcus faecalis (ATCC 29212): 32
- compound: "CC(c1ccccc1)C1NC(=O)CNC(=O)C(CO)NC(=O)C(CC2CNC(=N)N2C2OC(CO)C(O)C(O)C2O)NC(=O)C(CC2CNC(=N)N2)NC(=O)C(Cc2ccc(OC3OC(CO)C(OC4OC(CO)C(OCc5ccc(OCc6ccccc6)cc5)C(O)C4O)C(O)C3O)cc2)NC1=O (stereo not shown) [Example 246a]"
  system: "Enterococcus sp."
  value unit: "µg/mL"
  MIC Enterococcus faecalis (ATCC 29212): 4
- compound: "CC(c1ccccc1)C1NC(=O)CNC(=O)C(CO)NC(=O)C(C(O)C2CNC(=N)N2C2OC(CO)C(O)C(O)C2O)NC(=O)C(C(O)C2CNC(=N)N2)NC(=O)C(Cc2ccc(OC3OC(CO)C(OC4OC5COC(C67CC8CC(CC(C8)C6)C7)OC5C(O)C4O)C(O)C3O)cc2)NC1=O (stereo not shown) [Example 127]"
  system: "Enterococcus sp."
  value unit: "µg/mL"
  MIC Enterococcus faecalis (ATCC 29212): 2

Could you now consider this next compound?
**Q:** Look up MIC Enterococcus faecalis (ATCC 29212): CCOc1cc(COCC2OC(OC3C(CO)OC(Oc4ccc(CC5NC(=O)C(C(C)c6ccccc6)NC(=O)CNC(=O)C(CO)NC(=O)C(C(O)C6CNC(=N)N6C6OC(CO)C(O)C(O)C6O)NC(=O)C(C(O)C6CNC(=N)N6)NC5=O)cc4)C(O)C3O)C(O)C(O)C2O)ccc1OC (stereo not shown) [Example 238]
**A:** 16
